Target: H^+/K^+-ATPase (Sus scrofa)
Construct: used as an enzyme source of the in vitro enzyme reaction assay of proton pump
Test: Inhibitory effects on proton pump (H^+/K^+-ATPase) activity, hog gastric vesicles
Settings: K^+ stimulated H^+/K^+-ATPase activity, hog gastric vesicle, Pi measured at 620 nm
pIC50: −log10 of the molar value. Counter-ions that a name gives are not always drawn.
// label = rule met if pIC50 is not less than 7, otherwise rule not met

Completed entries (count: 3):
COC(=O)Cn1c(C)c(C)c2nccc(OCc3ccc(Cl)cc3Cl)c21 [Example 138, hydrochloride] | rule not met
C=CCn1c(C)c(C)c2nccc(OCc3cccc(C)c3)c21 [Example 155, hydrochloride] | rule not met
Cc1nc2c(C)c(C)n(Cc3ccccc3)c2c(OCc2ccc(F)cc2)c1C [Example 264, hydrochloride] | rule not met

## Input Test whether the molecule Cc1c(C)n(Cc2ccc(F)cc2)c2c(OCc3ccc(Br)cc3)ccnc12 [Example 221, hydrochloride] records pIC50 of 7 or higher.
## Output rule not met

## Input Test whether the molecule COCCn1c(C)c(C)c2nccc(OCc3ccc(F)cc3)c21 [Example 133, hydrobromide] records pIC50 of 7 or higher.
## Output rule met

## Input Test whether the molecule Cc1c(C)n(CC2CC2)c2c(OCc3ccc(Cl)cc3Cl)ccnc12.Cl [Example 139, hydrochloride] records pIC50 of 7 or higher.
## Output rule met

## Input Test whether the molecule Cc1c(C)n(Cc2ccc(Cl)cc2)c2c(OCc3ccc(Cl)cc3)ccnc12 [Example 88, hydrochloride] records pIC50 of 7 or higher.
## Output rule not met

## Input Test whether the molecule Cc1c(C)n(CC(C)C)c2c(OCc3ccc(F)cc3)ccnc12.Cl [Example 50, hydrochloride] records pIC50 of 7 or higher.
## Output rule not met

## Input Test whether the molecule CCOc1ccccc1COc1ccnc2c(C)c(C)n(Cc3cccc(F)c3)c12 [Example 178, hydrochloride] records pIC50 of 7 or higher.
## Output rule not met

* * *

Target: H^+/K^+-ATPase (Sus scrofa)
Construct: used as an enzyme source of the in vitro enzyme reaction assay of proton pump
Assay: Inhibitory effects on proton pump (H^+/K^+-ATPase) activity, hog gastric vesicles
Conditions: K^+ stimulated H^+/K^+-ATPase activity, hog gastric vesicle, Pi measured at 620 nm
Where a name gives a salt, the structure may show the parent alone.
measurement.kind: log10 of IC50 (log10 of the value in nM)
Lab note - IC50 converted to log10 from values in nM.

Cc1c(C)n(Cc2cccc(F)c2)c2c(OCc3ccc(Cl)cc3)ccnc12 [Example 93, hydrochloride] | 1.70
COc1cccc(Cn2c(C)c(C)c3nccc(OCc4ccc(Cl)cc4)c32)c1 [Example 92, hydrochloride] | 1.70
COc1cccc(Cn2c(C)c(C)c3nccc(OCc4cccc(C)c4)c32)c1 [Example 159, hydrochloride] | 2.94
COCn1c(C)c(C)c2nccc(OCc3ccc(Cl)cc3Cl)c21 [Example 134, hydrochloride] | 2.73
Cc1cccc(COc2ccnc3c(C)c(C)n(CC4CC4)c23)c1 [Example 154, hydrochloride] | 2.38
CCOc1ccccc1COc1ccnc2c(C)c(C)n(CC3CC3)c12 [Example 161, hydrochloride] | 2.76

Just so you know, measured log10 of IC50 for COCCn1c(C)c(C)c2nccc(OCc3ccc(F)cc3)c21.Cl [Example 61, hydrochloride] came out at 2.00

Just so you know, measured log10 of IC50 for Cc1c(C)n(Cc2ccccc2)c2c(OCc3ccc(Cl)cc3Cl)ccnc12 [Example 136, hydrochloride] came out at 1.70

Just so you know, measured log10 of IC50 for Cc1ccc(Cn2c(C)c(C)c3nccc(OCc4ccc(F)cc4)c32)cc1 [Example 34, hydrochloride] came out at 2.36

* * *

Molecular target: H^+/K^+-ATPase (Sus scrofa, UniProt P19156)
Construct: used as an enzyme source of the in vitro enzyme reaction assay of proton pump
Sequence (P19156 2-1034 limits assumed): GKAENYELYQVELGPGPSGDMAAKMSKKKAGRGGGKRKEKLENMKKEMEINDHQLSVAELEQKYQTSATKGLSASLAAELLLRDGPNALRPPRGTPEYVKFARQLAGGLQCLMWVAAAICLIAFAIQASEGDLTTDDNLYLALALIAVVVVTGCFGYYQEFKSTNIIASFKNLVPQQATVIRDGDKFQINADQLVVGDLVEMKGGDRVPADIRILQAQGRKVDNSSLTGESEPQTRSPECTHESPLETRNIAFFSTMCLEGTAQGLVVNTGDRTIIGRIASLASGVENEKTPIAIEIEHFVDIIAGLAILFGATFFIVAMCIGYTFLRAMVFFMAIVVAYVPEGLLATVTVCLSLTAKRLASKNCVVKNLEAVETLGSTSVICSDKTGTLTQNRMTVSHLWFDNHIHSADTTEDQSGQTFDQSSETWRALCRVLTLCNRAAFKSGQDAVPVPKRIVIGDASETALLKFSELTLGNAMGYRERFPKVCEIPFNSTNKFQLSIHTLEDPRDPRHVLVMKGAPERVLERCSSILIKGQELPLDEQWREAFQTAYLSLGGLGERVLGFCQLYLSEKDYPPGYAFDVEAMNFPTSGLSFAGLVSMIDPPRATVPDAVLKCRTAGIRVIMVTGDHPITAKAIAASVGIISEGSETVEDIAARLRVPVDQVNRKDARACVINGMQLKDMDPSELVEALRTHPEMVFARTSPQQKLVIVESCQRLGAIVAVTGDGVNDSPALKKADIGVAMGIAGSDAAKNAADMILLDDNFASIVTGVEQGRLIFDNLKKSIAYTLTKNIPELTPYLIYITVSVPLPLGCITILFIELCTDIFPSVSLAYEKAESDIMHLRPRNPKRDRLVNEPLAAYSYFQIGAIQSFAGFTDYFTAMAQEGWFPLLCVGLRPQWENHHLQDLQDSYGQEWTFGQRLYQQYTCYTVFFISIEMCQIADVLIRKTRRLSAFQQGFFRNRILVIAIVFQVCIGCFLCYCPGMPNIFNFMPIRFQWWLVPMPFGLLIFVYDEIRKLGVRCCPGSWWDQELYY
Sequence (P18434 whole entry partner): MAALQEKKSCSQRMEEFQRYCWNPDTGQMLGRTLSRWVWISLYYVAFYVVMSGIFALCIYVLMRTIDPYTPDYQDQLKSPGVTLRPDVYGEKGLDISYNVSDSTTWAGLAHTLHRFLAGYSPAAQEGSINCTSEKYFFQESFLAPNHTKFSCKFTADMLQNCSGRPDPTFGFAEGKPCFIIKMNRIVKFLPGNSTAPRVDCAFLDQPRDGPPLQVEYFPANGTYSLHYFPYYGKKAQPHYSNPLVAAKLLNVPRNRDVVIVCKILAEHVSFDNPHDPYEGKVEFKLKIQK
Assay: Inhibitory effects on proton pump (H^+/K^+-ATPase) activity, hog gastric vesicles
Settings: K^+ stimulated H^+/K^+-ATPase activity, hog gastric vesicle, Pi measured at 620 nm
Structures can show the parent of a compound that is named as a salt.
# note: boundary value 300 nM maps to FALSE; IC50 below it maps to TRUE

Cc1c(C)n(Cc2cccc(F)c2)c2c(OCc3ccc4c(c3)OCO4)ccnc12 [Example 116, hydrochloride] | TRUE

## Input Criterion: IC50 strictly below 300 nM. Is it met by Cc1c(C)n(CC2CC2)c2c(OCc3ccc4c(c3)OCO4)ccnc12 [Example 121, hydrochloride] ?
## Output FALSE

## Input Criterion: IC50 strictly below 300 nM. Is it met by COCCn1c(C)c(C)c2nccc(OCc3ccc(F)cc3)c21 [Example 126, nitrate] ?
## Output TRUE

## Input Criterion: IC50 strictly below 300 nM. Is it met by COCCn1c(C)c(C)c2nccc(OCc3ccc4c(c3)OCO4)c21 [Example 99, hydrochloride] ?
## Output FALSE

## Input Criterion: IC50 strictly below 300 nM. Is it met by COCCn1c(C)c(C)c2nccc(NCc3ccc(F)cc3)c21 [Example 256, hydrochloride] ?
## Output FALSE

* * *

Biological target: H^+/K^+-ATPase (Sus scrofa)
Construct: used as an enzyme source of the in vitro enzyme reaction assay of proton pump
Test: Inhibitory effects on proton pump (H^+/K^+-ATPase) activity, hog gastric vesicles
Settings: K^+ stimulated H^+/K^+-ATPase activity, hog gastric vesicle, Pi measured at 620 nm
Structures can show the parent of a compound that is named as a salt.
measurement.kind: pIC50
Scale note: pIC50 = -log10(concentration in M).

Cc1c(C)n(Cc2ccc(F)cc2)c2c(OCc3cc(F)cc(F)c3)ccnc12 [Example 184, hydrochloride] | 5.97
COCCn1c(C)c(C)c2nccc(OCc3ccc(F)cc3)c21 [Example 122] | 7.70
COc1ccc(Cn2c(C)c(C)c3nccc(OCc4ccc(F)cc4)c32)cc1 [Example 58, hydrochloride] | 6.64

Just so you know, measured pIC50 for Cc1c(C)n(Cc2ccc3ccccc3c2)c2c(OCc3ccc(F)cc3)ccnc12 [Example 37, hydrochloride] came out at 5.90

* * *

Documented pIC50 across a set of compounds
Target: H^+/K^+-ATPase (Sus scrofa, UniProt P19156)
Construct: used as an enzyme source of the in vitro enzyme reaction assay of proton pump
Experiment: Inhibitory effects on proton pump (H^+/K^+-ATPase) activity, hog gastric vesicles
Details: K^+ stimulated H^+/K^+-ATPase activity, hog gastric vesicle, Pi measured at 620 nm
Where a name gives a salt, the structure may show the parent alone.
Scale note: pIC50 = -log10(concentration in M).

Known pIC50 results, listed for orientation:
COc1cccc(Cn2c(C)c(C)c3nccc(OCc4ccc(C(F)(F)F)cc4)c32)c1 [Example 201, hydrochloride] | 6.17
Cc1c(C)n(Cc2ccc(F)cc2)c2c(OCc3ccc(Cl)cc3Cl)ccnc12 [Example 140, hydrochloride] | 7.10
CCOc1ccccc1COc1ccnc2c(C)c(C)n(CCOC)c12 [Example 162, hydrochloride] | 5.94

Consider the additional compound presented here.
Just so you know, measured pIC50 for COCCn1c(C)c(C)c2nccc(OCc3ccc(F)cc3)c21 [Example 132, oxalate] came out at 7.30

* * *

Target: H^+/K^+-ATPase (Sus scrofa)
Construct: used as an enzyme source of the in vitro enzyme reaction assay of proton pump
Assay: Inhibitory effects on proton pump (H^+/K^+-ATPase) activity, hog gastric vesicles
Conditions: K^+ stimulated H^+/K^+-ATPase activity, hog gastric vesicle, Pi measured at 620 nm
Where a name gives a salt, the structure may show the parent alone.
Documented IC50 across a set of compounds
Report only the number, with the unit nM understood.

Known IC50 results, listed for orientation:
CC(C)=CCn1c(C)c(C)c2nccc(OCc3ccc(Cl)cc3Cl)c21 [Example 135, hydrochloride] | 150
Cc1ccc(Cn2c(C)c(C)c3nccc(NCc4ccc(F)cc4)c32)cc1 [Example 263, hydrochloride] | 1450
Cc1ccc(Cn2c(C)c(C)c3nccc(OCc4cc(F)cc(F)c4)c32)cc1 [Example 196, hydrochloride] | 380

Consider the additional compound presented here.
Just so you know, measured IC50 for Cc1c(C)n(CC2CCC2)c2c(OCc3ccc(F)cc3)ccnc12.Cl [Example 55, hydrochloride] came out at 70

* * *

Test system: basal gastric acid secretion
Assay: Inhibitory effects on basal gastric acid secretion in pylorus-ligated rats (Shay's rat model)
Type: in vivo, Sprague Dawley (SD) rats
Settings: oral, one hour before pylorus ligation, total acid output 5 hours after ligation, male SD rats
# note: boundary value 2 mg/kg maps to false; ED50 below it maps to true

Completed entries (count: 6):
COCCn1c(C)c(C)c2nccc(OCc3ccc(F)cc3)c21.Cl [Example 61] | false
Cc1c(C)n(Cc2ccccc2)c2c(OCc3ccc(Cl)cc3)ccnc12.Cl [Example 73] | false
Cc1c(C)n(CC2CC2)c2c(OCc3ccc(Cl)cc3Cl)ccnc12.Cl [Example 139] | true
Cc1c(C)n(CC(C)C)c2c(OCc3ccc(F)cc3)ccnc12.Cl [Example 50] | false
CCCn1c(C)c(C)c2nccc(OCc3ccc(F)cc3)c21.Cl [Example 62] | true
Cc1c(C)n(CC2CCC2)c2c(OCc3ccc(F)cc3)ccnc12.Cl [Example 55] | true

Query compound follows.
## Input Criterion: ED50 strictly below 2 mg/kg. Is it met by COCCn1c(C)c(C)c2nccc(OCc3ccc(Cl)cc3)c21.Cl [Example 86] ?
## Output true
